FYI, the data here is from patent US8613914B2.

Target: HCV NS3-4A serine protease (full-length NS3-4A protein) (Hepatitis C virus genotype 1a (isolate 1) (HCV), UniProt P26664)
Sequence (P26664 1027-1657): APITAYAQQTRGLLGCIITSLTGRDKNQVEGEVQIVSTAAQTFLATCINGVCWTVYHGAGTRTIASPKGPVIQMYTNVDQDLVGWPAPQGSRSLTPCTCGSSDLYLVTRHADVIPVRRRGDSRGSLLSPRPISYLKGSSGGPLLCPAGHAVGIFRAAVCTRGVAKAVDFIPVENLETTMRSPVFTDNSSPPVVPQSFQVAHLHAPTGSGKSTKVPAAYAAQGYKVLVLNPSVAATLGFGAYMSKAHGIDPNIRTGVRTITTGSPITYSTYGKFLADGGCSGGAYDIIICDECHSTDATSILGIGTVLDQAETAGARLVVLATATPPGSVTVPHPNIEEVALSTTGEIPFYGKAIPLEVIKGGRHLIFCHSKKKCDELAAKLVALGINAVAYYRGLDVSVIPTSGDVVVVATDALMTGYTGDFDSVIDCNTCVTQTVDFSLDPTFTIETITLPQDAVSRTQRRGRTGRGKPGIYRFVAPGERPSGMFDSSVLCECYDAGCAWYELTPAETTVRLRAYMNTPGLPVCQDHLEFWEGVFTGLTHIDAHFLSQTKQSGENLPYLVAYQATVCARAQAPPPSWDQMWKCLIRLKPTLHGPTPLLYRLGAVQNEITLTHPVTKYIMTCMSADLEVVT
Sequence (P26664 1658-1711 partner): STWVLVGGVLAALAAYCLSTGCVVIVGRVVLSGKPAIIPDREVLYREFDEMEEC
Assay: HCV NS3-4A protease assay
Conditions: strain HCV-1, fluorogenic peptide substrate, read-out: Protease assay Ex. 12 IC50
Quantity measured: log10 of IC50 (log10 of the value in nM)

Input smiles	log10 of IC50
C=C[C@@H]1C[C@]1(NC(=O)[C@@H]1C[C@@]2(CN1C(=O)[C@@H](NC(=O)[C@@H](NC(=O)c1ccc3occc3c1)C1CCCCC1)C(C)(C)C)C(C)(C)C21CCC1)C(=O)NS(=O)(=O)N1CCCC1	1.40
C=C[C@@H]1C[C@]1(NC(=O)[C@@H]1C[C@@]2(CN1C(=O)[C@@H](NC(=O)[C@@H](NC(=O)[C@@H]1CCCN1CC)C1(C)CCCCC1)C1(C)CCOCC1)C(C)(C)C21CCC1)C(=O)NS(=O)(=O)N(CC)CC	0.26
C=C[C@@H]1C[C@]1(NC(=O)[C@@H]1C[C@@]2(CN1C(=O)[C@@H](NC(=O)[C@@H](NC(=O)[C@@H]1Cc3[nH]cnc3CN1)C(C)(C)C)C(C)(C)C)C(C)(C)C21CCC1)C(=O)NS(=O)(=O)N1CCCC1	1.60
C=C[C@@H]1C[C@]1(NC(=O)[C@@H]1C[C@@]2(CN1C(=O)[C@@H](NC(=O)[C@@H](NC(=O)[C@@H]1CCCCN1CC)C1CCCCC1)C1CCOCC1)C(C)(C)C21CCC1)C(=O)NS(=O)(=O)N(CC)CC	0.65
C=C[C@@H]1C[C@]1(NC(=O)[C@@H]1C[C@@]2(CN1C(=O)[C@@H](NC(=O)[C@@H](NC(=O)c1cnc3ccccc3c1)C1CCCCC1)C(C)(C)C)C(C)(C)C21CCC1)C(=O)NS(=O)(=O)N1CCCC1	1.30
CC[C@@H]1C[C@]1(NC(=O)[C@@H]1C[C@@]2(CN1C(=O)[C@@H](NC(=O)[C@@H](NC(=O)[C@@H]1CCCCN1C(C)C)C1CCCCC1)C(C)(C)C)C(C)(C)C21CCC1)C(=O)NS(=O)(=O)N(CC)CC	0.90
C=C[C@@H]1C[C@]1(NC(=O)[C@@H]1C[C@@]2(CN1C(=O)[C@@H](NC(=O)[C@@H](NC(=O)[C@@H]1CCCN1CC)C1CCOCC1)C1(C)CCOCC1)C(C)(C)C21CCC1)C(=O)NS(=O)(=O)N1CCCC1	0.78
C=C[C@@H]1C[C@]1(NC(=O)[C@@H]1C[C@@]2(CN1C(=O)[C@@H](NC(=O)[C@@H](NC(=O)[C@@H]1CCCCN1C(C)C)C1CCCCC1)C(C)(C)C)C(C)(C)C21CCC1)C(=O)NS(=O)(=O)N(CC)C(C)C	0.90

----------
Target: HCV NS3-4A serine protease (full-length NS3-4A protein) (Hepatitis C virus genotype 1a (isolate 1) (HCV))
Assay: HCV NS3-4A protease assay
Settings: strain HCV-1, fluorogenic peptide substrate, read-out: Protease assay Ex. 12 IC50

Input smiles	IC50, nM
C=C[C@@H]1C[C@]1(NC(=O)[C@@H]1C[C@@]2(CN1C(=O)[C@@H](NC(=O)[C@@H](NC(=O)[C@@H]1CCCCN1C(C)C)C1CCCCC1)C(C)(C)C)C(C)(C)C21CCC1)C(=O)NS(=O)(=O)N1CC[C@@H](F)C1	1
C=C[C@@H]1C[C@]1(NC(=O)[C@@H]1C[C@@]2(CN1C(=O)[C@@H](NC(=O)[C@@H](NC(=O)[C@@H]1CCCCN1C(C)C)C1CCCCC1)C1(C)CCOCC1)C(C)(C)C21CCC1)C(=O)NS(=O)(=O)N(CC)CC	2.4
C=C[C@@H]1C[C@]1(NC(=O)[C@@H]1C[C@@]2(CN1C(=O)[C@@H](NC(=O)[C@@H](NC(=O)c1ccnc3ccccc13)C1CCCCC1)C(C)(C)C)C(C)(C)C21CCC1)C(=O)NS(=O)(=O)N1CCCC1	40
C=C[C@@H]1C[C@]1(NC(=O)[C@@H]1C[C@@]2(CN1C(=O)[C@@H](NC(=O)[C@@H](NC(=O)[C@H]1CCCCN1C(C)C)C1CCCCC1)C(C)(C)C)C(C)(C)C21CCC1)C(=O)NS(=O)(=O)N1CCCCC1	4.5
C=C[C@@H]1C[C@]1(NC(=O)[C@@H]1C[C@@]2(CN1C(=O)[C@@H](NC(=O)[C@@H](NC(=O)[C@@H]1CCCCN1C(C)C)C(C)(C)C)C(C)C)C(C)(C)C21CCC1)C(=O)NS(=O)(=O)N(CC)CC	5.5
C=C[C@@H]1C[C@]1(NC(=O)[C@@H]1C[C@@]2(CN1C(=O)[C@@H](NC(=O)[C@@H](NC(=O)[C@@H]1CCCCN1C(C)C)C1(C)CCCCC1)C1(C)CCOCC1)C(C)(C)C21CCC1)C(=O)NS(=O)(=O)N1CCCC1	1.5
C=C[C@@H]1C[C@]1(NC(=O)[C@@H]1C[C@@]2(CN1C(=O)[C@@H](NC(=O)[C@@H](NC(=O)[C@@H]1CCCCN1C(C)C)C1CCCCC1)C1CCOCC1)C(C)(C)C21CCC1)C(=O)NS(=O)(=O)N(CC)CC	6
C=C[C@@H]1C[C@]1(NC(=O)[C@@H]1C[C@@]2(CN1C(=O)[C@@H](NC(=O)[C@@H](NC(=O)[C@@H]1CCCN(CC)C1)C(C)(C)C)C(C)(C)C)C(C)(C)C21CCC1)C(=O)NS(=O)(=O)N1CCCC1	35
C=C[C@@H]1C[C@]1(NC(=O)[C@@H]1C[C@@]2(CN1C(=O)[C@@H](NC(=O)[C@@H](NC(=O)[C@@H]1CCCCN1C(C)C)C1CCCCC1)C(C)(C)C)C(C)(C)C21CCC1)C(=O)NS(=O)(=O)N(CC)CCC	10
C=C[C@@H]1C[C@]1(NC(=O)[C@@H]1C[C@@]2(CN1C(=O)[C@@H](NC(=O)[C@@H](NC(=O)c1cc3cc(OC)ccc3[nH]1)C1CCCCC1)C(C)(C)C)C(C)(C)C21CCC1)C(=O)NS(=O)(=O)N1CCCC1	25
C=C[C@@H]1C[C@]1(NC(=O)[C@@H]1C[C@@]2(CN1C(=O)[C@@H](NC(=O)[C@@H](NC(=O)[C@@H]1CCCCN1C(C)C)C(C)(C)C)C1(C)CCOCC1)C(C)(C)C21CCC1)C(=O)NS(=O)(=O)N1CCCC1	1.4
C=C[C@@H]1C[C@]1(NC(=O)[C@@H]1C[C@@]2(CN1C(=O)[C@@H](NC(=O)[C@@H](NC(=O)[C@@H]1CCCN1CC(F)(F)F)C1CCCCC1)C1CCOCC1)C(C)(C)C21CCC1)C(=O)NS(=O)(=O)N1CCCC1	40
C=C[C@@H]1C[C@]1(NC(=O)[C@@H]1C[C@@]2(CN1C(=O)[C@@H](NC(=O)[C@@H](NC(=O)c1cnccn1)C1CCCCC1)C(C)(C)C)C(C)(C)C21CCC1)C(=O)NS(=O)(=O)NC(C)(C)C	10
C=C[C@@H]1C[C@]1(NC(=O)[C@@H]1C[C@@]2(CN1C(=O)[C@@H](NC(=O)[C@@H](NC(=O)[C@H]1CCN1C(C)C)C1CCCCC1)C(C)(C)C)C(C)(C)C21CCC1)C(=O)NS(=O)(=O)N1CCCC1	10
C=C[C@@H]1C[C@]1(NC(=O)[C@@H]1C[C@@]2(CN1C(=O)[C@@H](NC(=O)[C@@H](NC(=O)[C@@H]1CCCN1C1CCCC1)C1CCCCC1)C(C)(C)C)C(C)(C)C21CCC1)C(=O)NS(=O)(=O)N1CCCC1	2
C=C[C@@H]1C[C@]1(NC(=O)[C@@H]1C[C@@]2(CN1C(=O)[C@@H](NC(=O)[C@@H](NC(=O)[C@@H]1CCCN1CC)C1(C)CCOCC1)C1(C)CCCCC1)C(C)(C)C21CCC1)C(=O)NS(=O)(=O)N(CC)CC	1

----------
Target: HCV NS3-4A serine protease (full-length NS3-4A protein) (Hepatitis C virus genotype 1a (isolate 1) (HCV))
Test: HCV NS3-4A protease assay
Details: strain HCV-1, fluorogenic peptide substrate, read-out: Protease assay Ex. 12 IC50

Compound	Result unit	IC50
C=C[C@@H]1C[C@]1(NC(=O)[C@@H]1C[C@@]2(CN1C(=O)[C@@H](NC(=O)[C@@H](NC(=O)[C@@H]1CCCN1C(C)C)C1CCCCC1)C(C)(C)C)C(C)(C)C21CCC1)C(=O)NS(=O)(=O)N(CC)CC [Compound 62]	nM	1
C=C[C@@H]1C[C@]1(NC(=O)[C@@H]1C[C@@]2(CN1C(=O)[C@@H](NC(=O)[C@@H](NC(=O)[C@@H]1CCCCN1C1CCCC1)C1CCCCC1)C(C)(C)C)C(C)(C)C21CCC1)C(=O)NS(=O)(=O)N(CC)CC [Compound 64]	nM	2
C=C[C@@H]1C[C@]1(NC(=O)[C@@H]1C[C@@]2(CN1C(=O)[C@@H](NC(=O)[C@@H](NC(=O)C1CN(C(C)C)C1)C1CCCCC1)C(C)(C)C)C(C)(C)C21CCC1)C(=O)NS(=O)(=O)N1CCCC1 [Compound 19]	nM	55
C=C[C@@H]1C[C@]1(NC(=O)[C@@H]1C[C@@]2(CN1C(=O)[C@@H](NC(=O)[C@@H](NC(=O)[C@@H]1CCCCN1CC)c1ccccc1)C(C)(C)C)C(C)(C)C21CCC1)C(=O)NS(=O)(=O)N1CCCC1 [Compound 103]	nM	20
